Assay: chemical genetic growth profiling, strain panel (AID 1159580);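 note: tested at 20 µM; growth read once vehicle control cultures reached saturation at 30 °C; 1 = growth at the plate median or of vehicle wells; lower values mean less growth of the strain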
Conditions: S. cerevisiae deletion strains, growth OD, locus YLR027C, strain aat2, stronger effect = lower value
Among all 5,500 compounds or so, about 2,000 (36%) were called active. Another 18% or so got no clear call; they are omitted. The list shows a part of the results.
Consider the cut-off 1. If the recorded normalized growth is strictly smaller, the label is 1; if not, the label is 0.

Determine whether this molecule shows normalized growth lower than 1 (ties excluded): CC1=CC(=O)c2c(O)cccc2C1=O 1

Determine whether this molecule shows normalized growth lower than 1 (ties excluded): CC(C)=CCCC(C)[C@@H]1CC[C@]2(C)C3=C(CC[C@@]12C)C1(C)CC[C@H](O)C(C)(C)C1CC3 (some centres undefined) 0

Determine whether this molecule shows normalized growth lower than 1 (ties excluded): CC(=O)O[C@H]1CCC2(C)C3=C(CCC2C1(C)C)[C@@]1(C)CC[C@@H](C(C)CCC=C(C)C)[C@]1(C)CC3 (some centres undefined) 0

Determine whether this molecule shows normalized growth lower than 1 (ties excluded): O=C(OOC(=O)c1ccccc1)c1ccccc1 1

Determine whether this molecule shows normalized growth lower than 1 (ties excluded): CC1=CC(=O)c2ccccc2C1=O 1

Determine whether this molecule shows normalized growth lower than 1 (ties excluded): O=C(O)C1=CCCNC1 1

Determine whether this molecule shows normalized growth lower than 1 (ties excluded): CC(=O)Oc1cccc(O)c1 0

====

Exercise: state measured normalized growth for each of the molecules provided.
Experiment: chemical genetic growth profiling, strain panel (AID 1159580);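 note: tested at 20 µM; growth read once vehicle control cultures reached saturation at 30 °C; 1 = growth at the plate median or of vehicle wells; lower values mean less growth of the strain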
Settings: S. cerevisiae deletion strains, growth OD, locus YIR030C, strain dcg1, stronger effect = lower value
Out of some 5,500 compounds screened, about 2,000 (36%) were called active. Roughly 18% stayed inconclusive and do not appear here. This is one part of the list.
Form: value (number only, do not type unit).

Query (molecule): C=C1c2cccc(O)c2C(O)=C2C(=O)[C@]3(O)C(O)=C(C(N)=O)C(=O)[C@@H](N(C)C)[C@@H]3[C@@H](O)[C@H]12 ; field requested: normalized growth 1

Query (molecule): CC(=O)c1ccc(O)c(CC=C(C)C)c1 ; field requested: normalized growth 0.965

Query (molecule): COC(=O)c1c(OC)cc2c(c1C)Oc1c(Cl)c(O)c(Cl)c(C)c1C(=O)O2 ; field requested: normalized growth 0.925

Query (molecule): O=C(NCO)c1cccnc1 ; field requested: normalized growth 0.992

Query (molecule): CC(C)=CCc1c2c(c3occ(-c4ccc(O)c(O)c4)c(=O)c3c1O)C=CC(C)(C)O2 ; field requested: normalized growth 0.811

Query (molecule): CN(C)c1ccc(O)c2c1C[C@H]1C[C@H]3[C@H](N(C)C)C(=O)C(C(N)=O)=C(O)[C@@]3(O)C(=O)C1=C2O ; field requested: normalized growth 0.987

Query (molecule): CC(C)CCCC(C)C1CCC2C3CC(=O)[C@H]4C[C@@H](O)CC[C@]4(C)C3CC[C@]12C (stereo partly specified) ; field requested: normalized growth 1.01

Query (molecule): CC(C)CCCC(C)[C@H]1CCC2C3CC=C4CC(=O)CC[C@]4(C)C3CC[C@@]21C (stereo partly specified) ; field requested: normalized growth 0.979

Query (molecule): CC(=O)Oc1c(Cl)c(C)c2c(c1Cl)OC(=O)c1c(C)c(Cl)c(OC(C)=O)c(Cl)c1O2 ; field requested: normalized growth 0.934

Query (molecule): NC1=NCCN1CC(=O)O ; field requested: normalized growth 0.994

Query (molecule): Cc1c(C)c2c(c(C)c1O)CCC(C)(CCCC(C)CCCC(C)CCCC(C)C)O2 (stereo unspecified) ; field requested: normalized growth 0.997

Query (molecule): N=C(N)N ; field requested: normalized growth 0.99

Query (molecule): Nc1ccc(C(=O)O)cc1 ; field requested: normalized growth 1.02

Query (molecule): CN(C)[C@@H]1C(=O)C(C(N)=O)=C(O)[C@@]2(O)C(=O)C3=C(O)c4c(O)ccc(Cl)c4[C@@](C)(O)[C@H]3C[C@@H]12 ; field requested: normalized growth 1.01

Query (molecule): CN(C)C1C(=O)C(C(N)=O)=C(O)C2(O)C(=O)C3=C(O)c4c(O)ccc(Cl)c4C(C)(O)C3CC12 (stereo unspecified) ; field requested: normalized growth 0.986

Query (molecule): CC(C)c1ccc2c(c1)CCC1C(C)(C(N)=O)CCCC21C (stereo unspecified) ; field requested: normalized growth 0.97

====

Assay: chemical genetic growth profiling, strain panel (AID 1159580);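 note: tested at 20 µM; growth read once vehicle control cultures reached saturation at 30 °C; 1 = growth at the plate median or of vehicle wells; lower values mean less growth of the strain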
Details: S. cerevisiae deletion strains, growth OD, locus YDR334W, strain swr1, stronger effect = lower value
Screen size: about 5,500 compounds; about 2,000 (36%) were called active. Another 18% or so got no clear call; they are omitted. This is one part of the list.
Consider the cut-off 1. If the recorded normalized growth is strictly smaller, the label is true (1); if not, the label is false (0).

Determine whether this compound shows normalized growth lower than 1 (ties excluded): O=C(OOC(=O)c1ccccc1)c1ccccc1 true (1)

Determine whether this compound shows normalized growth lower than 1 (ties excluded): CCCc1cc(=O)[nH]c(=S)[nH]1 false (0)

Determine whether this compound shows normalized growth lower than 1 (ties excluded): CC(=O)c1ccc(O)c(CC=C(C)C)c1 true (1)

====

Assay: chemical genetic growth profiling, strain panel (AID 1159580);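 note: tested at 20 µM; growth read once vehicle control cultures reached saturation at 30 °C; 1 = growth at the plate median or of vehicle wells; lower values mean less growth of the strain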
Settings: S. cerevisiae deletion strains, growth OD, locus YNL153C, strain GIM3, stronger effect = lower value
Screen size: about 5,500 compounds; about 2,000 (36%) were called active. Roughly 18% stayed inconclusive and do not appear here. This is one part of the list.
Exercise: state measured normalized growth for each of the molecules provided.
Form: value (number only, do not type unit).

Query (molecule): c1ccc(CN2CCC(n3nnc4cccnc43)CC2)cc1 ; field requested: normalized growth 1.01

Query (molecule): CSc1ncc(C#N)c2nc(-c3ccc(N(C)C)cc3)nn12 ; field requested: normalized growth 0.985

Query (molecule): C[C@@H](NC(=O)/C(C#N)=C/c1ccc(O)c(O)c1)c1ccccc1 ; field requested: normalized growth 0.978

Query (molecule): CCOC(=O)c1ccc(NC(N)=S)cc1 ; field requested: normalized growth 0.979

Query (molecule): CC(=O)O[C@H]1CC[C@@]2(C)C(C[C@@H](OC(C)=O)[C@@]3(C)C4=CC(=O)O[C@@H](c5ccoc5)[C@]4(C)CCC23)C1(C)C (stereo not given in full) ; field requested: normalized growth 0.999

Query (molecule): Cc1scc2c1N(C(=O)CN1CCN(C)CC1)c1ccccc1NC2=O ; field requested: normalized growth 1

Query (molecule): CC(C)CC(NC(=O)OCC1c2ccccc2-c2ccccc21)C(=O)O (stereo not given) ; field requested: normalized growth 1.02

Query (molecule): COc1c(C)c2c(c(C)c1Cl)Oc1c(Cl)c(OC)c(Cl)c(C)c1C(=O)O2 ; field requested: normalized growth 1

Query (molecule): O=C(O)CSC1CCS(=O)(=O)C1 (stereo not given) ; field requested: normalized growth 0.997

Query (molecule): CC(C)=CCc1c2c(c3occ(-c4ccc(O)c(O)c4)c(=O)c3c1O)C=CC(C)(C)O2 ; field requested: normalized growth 0.388

Query (molecule): CC(C)=CCc1c2c(c3occ(-c4ccc(O)cc4)c(=O)c3c1O)C=CC(C)(C)O2 ; field requested: normalized growth 0.835

Query (molecule): CN(C)C1C(=O)C(C(N)=O)=C(O)C2(O)C(=O)C3=C(O)c4c(O)ccc(Cl)c4C(C)(O)C3CC12 (stereo not given) ; field requested: normalized growth 1.01

Query (molecule): NC(=O)c1ncn(C2OC(CO)C(O)C2O)c1O (stereo not given) ; field requested: normalized growth 1.02

Query (molecule): Clc1ccc(Sc2ncnc3ccsc23)cc1 ; field requested: normalized growth 0.924

Query (molecule): CC(=O)c1ccc(O)c(CC=C(C)C)c1 ; field requested: normalized growth 0.969

Query (molecule): CCOC(=O)c1ccc(NC(=O)CCC(=O)O)cc1 ; field requested: normalized growth 1.01

Query (molecule): CCCc1cc(=O)oc2c1c(C)nn2-c1ccccc1 ; field requested: normalized growth 0.864

Query (molecule): Cc1o[nH]c(=O)c1CC(N)C(=O)O (stereo not given) ; field requested: normalized growth 0.989

Query (molecule): Cc1cc(C)c(Cn2nc(C(C)(C)C)cc2C(=O)Nc2cccc(C(F)(F)F)c2)c(C)c1 ; field requested: normalized growth 1

Query (molecule): NC(N)=NC(N)=Nc1ccc2c(c1)OCCO2 ; field requested: normalized growth 1.01

Query (molecule): N/C(=N/OC(=O)c1ccccc1)c1ccc(-c2csnn2)cc1 ; field requested: normalized growth 1

Query (molecule): CC(=O)O[C@@H]1C=C[C@@]2(C)C(C[C@@H](OC(C)=O)[C@@]3(C)C4=CC(=O)O[C@@H](c5ccoc5)[C@]4(C)CCC23)C1(C)C (stereo not given in full) ; field requested: normalized growth 0.998

Query (molecule): CC(=O)N[C@@H](Cc1c[nH]c2ccccc12)C(N)=O ; field requested: normalized growth 0.97

Query (molecule): O=c1[nH]c2cc(Cl)ccc2c(O)c1-c1ccc(Oc2ccccc2)cc1 ; field requested: normalized growth 1.03

Query (molecule): COC(=O)c1c(OC)cc2c(c1C)Oc1c(Cl)c(O)c(Cl)c(C)c1C(=O)O2 ; field requested: normalized growth 0.909
